- EXPERIMENTAL_PROTOCOL: Plasma protein binding assay
- Type: in vitro ADME
- MEASUREMENT_CONDITIONS: plasma, 2 h incubation
READOUT_LABEL: fraction unbound at 2 h

>>> df
                                   molecule            readout_label  result
0  O=c1nc(NO)ccn1[C@@H]1O[C@H](CO)[C@@H](O)[C@H]1O [NHC, β-D-N4-hydroxycytidine]  fraction unbound at 2 h   ~0.64

[in] Endpoint output: fraction unbound at 2 h of CC(C)C(=O)OC[C@H]1O[C@@H](n2ccc(NO)nc2=O)[C@H](O)[C@@H]1O [Molnupiravir] . Value?
[out] ~0.62

---

- EXPERIMENTAL_PROTOCOL: PAMPA permeability assay
- Format: in vitro ADME
- MEASUREMENT_CONDITIONS: data from in vitro studies, read-out: specific intestinal permeability (converted)
READOUT_LABEL: Papp at 72360 s (×10⁻⁶ cm/s)
Answers are plain numbers, in ×10⁻⁶ cm/s.

[in] Endpoint output: Papp at 72360 s of CC(C)C(=O)OC[C@H]1O[C@@H](n2ccc(NO)nc2=O)[C@H](O)[C@@H]1O . Value?
[out] 3.1
